system_name: Recombinant human His-tagged Kat6a protein (amino acids 194-810) (Homo sapiens)
Construct: Kat6a protein (amino acids 194-810); His
experiment_notes: Kat6a activity assay (TR-FRET, acetylation of Histone-H4-derived peptide)
condition_label: 60 mins at 22° C., 220 nM H4 peptide, 600 nM Acetyl Coenzyme A, read-out: KAT6A - DPF/HAT domain IC50 [mol/l] (arithmetic mean)
pIC50: −log10 of the molar value.
Reported pIC50 values for the following compounds.

[
  {
    "compound": "COC(=O)CCc1ccccc1S(=O)(=O)NC(=O)c1cc2c(F)cc(N3CCC3)cc2o1 [Example 102]",
    "system_name": "Recombinant human His-tagged Kat6a protein (amino acids 194-810) (Homo sapiens)",
    "pIC50": 6.94
  },
  {
    "compound": "COc1ccc(N2CCOCC2)cc1S(=O)(=O)NC(=O)c1cc2c(F)cc(N3CCC3)cc2o1 [Example 137]",
    "system_name": "Recombinant human His-tagged Kat6a protein (amino acids 194-810) (Homo sapiens)",
    "pIC50": 7.58
  },
  {
    "compound": "CC1(C)CCN1c1cc(F)c2cc(C(=O)NS(=O)(=O)c3ccccc3)oc2c1 [Example 216]",
    "system_name": "Recombinant human His-tagged Kat6a protein (amino acids 194-810) (Homo sapiens)",
    "pIC50": 5.02
  },
  {
    "compound": "CC(=O)Nc1ccc(S(=O)(=O)NC(=O)c2cc3c(F)cc(N4CCC4)cc3o2)c2ccccc12 [Example 185]",
    "system_name": "Recombinant human His-tagged Kat6a protein (amino acids 194-810) (Homo sapiens)",
    "pIC50": 6.71
  },
  {
    "compound": "O=C(NS(=O)(=O)c1c[nH]c2ccccc12)c1cc2c(F)cc(N3CCC3)cc2o1 [Example 176]",
    "system_name": "Recombinant human His-tagged Kat6a protein (amino acids 194-810) (Homo sapiens)",
    "pIC50": 7.57
  },
  {
    "compound": "COc1ccc(-c2cccc(F)c2)cc1S(=O)(=O)NC(=O)c1cc2c(F)cc(N3CCC3)cc2o1 [Example 198]",
    "system_name": "Recombinant human His-tagged Kat6a protein (amino acids 194-810) (Homo sapiens)",
    "pIC50": 7.94
  },
  {
    "compound": "CC(C)(C)c1ccc(OCC(F)(F)F)c(S(=O)(=O)NC(=O)c2cc3c(F)cc(N4CCC4)cc3o2)c1 [Example 227]",
    "system_name": "Recombinant human His-tagged Kat6a protein (amino acids 194-810) (Homo sapiens)",
    "pIC50": 8.27
  },
  {
    "compound": "O=C(NS(=O)(=O)c1c(OCc2ccccc2)cccc1OC1CCC1)c1cc2c(F)cc(N3CCC3)cc2o1 [Example 5]",
    "system_name": "Recombinant human His-tagged Kat6a protein (amino acids 194-810) (Homo sapiens)",
    "pIC50": 8.85
  }
]

---

Reported log10 IC50 values for the following compounds.
system_name: Recombinant human GST-tagged Kat6b protein (431-end) (Homo sapiens)
Construct: Kat6b protein (431-end, N-terminal GST-tag); GST (N)
Sequence (Q8WYB5 431-2073): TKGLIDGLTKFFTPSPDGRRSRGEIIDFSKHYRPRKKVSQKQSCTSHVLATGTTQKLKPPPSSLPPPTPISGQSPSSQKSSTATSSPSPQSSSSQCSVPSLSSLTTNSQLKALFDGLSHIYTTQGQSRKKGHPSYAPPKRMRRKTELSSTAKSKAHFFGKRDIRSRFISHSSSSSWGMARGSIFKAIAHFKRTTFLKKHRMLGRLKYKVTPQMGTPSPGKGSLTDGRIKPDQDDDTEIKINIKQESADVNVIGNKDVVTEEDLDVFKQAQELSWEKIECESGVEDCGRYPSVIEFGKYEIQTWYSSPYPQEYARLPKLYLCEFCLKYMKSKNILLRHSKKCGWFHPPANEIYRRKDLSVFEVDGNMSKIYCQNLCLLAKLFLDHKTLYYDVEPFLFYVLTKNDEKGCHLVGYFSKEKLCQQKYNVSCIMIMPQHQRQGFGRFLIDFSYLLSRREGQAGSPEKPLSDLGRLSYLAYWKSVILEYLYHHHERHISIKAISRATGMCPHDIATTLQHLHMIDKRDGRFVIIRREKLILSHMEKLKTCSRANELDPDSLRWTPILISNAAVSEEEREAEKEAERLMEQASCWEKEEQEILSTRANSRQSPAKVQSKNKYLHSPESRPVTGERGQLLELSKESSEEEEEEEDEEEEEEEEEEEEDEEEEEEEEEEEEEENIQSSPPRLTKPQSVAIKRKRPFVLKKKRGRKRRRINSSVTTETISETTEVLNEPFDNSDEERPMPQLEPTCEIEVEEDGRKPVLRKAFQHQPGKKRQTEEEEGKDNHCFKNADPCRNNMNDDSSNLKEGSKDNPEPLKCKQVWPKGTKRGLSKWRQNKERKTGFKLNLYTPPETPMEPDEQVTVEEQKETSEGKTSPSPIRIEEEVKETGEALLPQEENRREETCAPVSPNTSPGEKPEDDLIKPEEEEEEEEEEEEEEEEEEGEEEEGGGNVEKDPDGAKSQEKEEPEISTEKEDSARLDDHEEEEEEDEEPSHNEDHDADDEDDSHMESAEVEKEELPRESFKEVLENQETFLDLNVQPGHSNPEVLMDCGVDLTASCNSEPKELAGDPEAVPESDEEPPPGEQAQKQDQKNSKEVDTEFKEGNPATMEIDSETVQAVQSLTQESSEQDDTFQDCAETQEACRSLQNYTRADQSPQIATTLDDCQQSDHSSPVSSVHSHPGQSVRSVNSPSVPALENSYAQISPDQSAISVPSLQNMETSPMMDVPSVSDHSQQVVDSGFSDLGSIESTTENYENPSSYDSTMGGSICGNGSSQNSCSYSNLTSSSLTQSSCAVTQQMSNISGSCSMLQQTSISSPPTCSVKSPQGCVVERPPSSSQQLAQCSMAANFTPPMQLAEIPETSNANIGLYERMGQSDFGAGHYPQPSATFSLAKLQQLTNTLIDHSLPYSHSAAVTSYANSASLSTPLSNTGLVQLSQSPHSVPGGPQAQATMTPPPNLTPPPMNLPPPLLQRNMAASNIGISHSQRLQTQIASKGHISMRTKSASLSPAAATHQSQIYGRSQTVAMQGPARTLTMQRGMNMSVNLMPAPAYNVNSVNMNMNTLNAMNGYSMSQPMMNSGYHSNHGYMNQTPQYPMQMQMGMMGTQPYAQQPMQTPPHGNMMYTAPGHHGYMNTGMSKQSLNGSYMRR
experiment_notes: Kat6b activity assay (TR-FRET, acetylation of Histone-H4-derived peptide)
Assay type: biochemical
condition_label: 30 mins at 22° C., 500 nM H4 peptide, 600 nM Acetyl Coenzyme A, read-out: KAT6B activity assay IC50 [mol/l] (arithmetic mean)
property: log10 IC50 (log10 of the value in nM)

[
  {
    "compound": "CCOc1ccc(C(C)(C)C)cc1S(=O)(=O)NC(=O)c1cc2c(F)cc(N3CC(F)C3)cc2o1 [Example 113]",
    "log10 IC50": 1.06
  },
  {
    "compound": "COc1ccc(C(C)(C)C)cc1S(=O)(=O)NC(=O)c1cc2c(F)cc(N3CC(F)C3)cc2o1 [Example 150]",
    "log10 IC50": 0.99
  },
  {
    "compound": "Cc1ccc2cccc(S(=O)(=O)NC(=O)c3cc4c(F)cc(N5CCC5)cc4o3)c2n1 [Example 130]",
    "log10 IC50": 1.29
  },
  {
    "compound": "CC(C)(C)c1ccc(OCc2ccccc2)c(S(=O)(=O)NC(=O)c2cc3c(F)cc(N4CCC4)cc3o2)c1 [Example 225]",
    "log10 IC50": 0.99
  },
  {
    "compound": "COc1ccc(-c2cn(C)nc2C)cc1S(=O)(=O)NC(=O)c1cc2c(F)cc(N3CCC3)cc2o1 [Example 195]",
    "log10 IC50": 1.30
  },
  {
    "compound": "CCOc1ccc(C(C)C)cc1S(=O)(=O)NC(=O)c1cc2c(F)cc(N3CCC3)cc2o1 [Example 128]",
    "log10 IC50": 1.18
  },
  {
    "compound": "CCOc1ccc(C(C)C)cc1S(=O)(=O)NC(=O)c1cc2c(F)cc(N3CC(F)C3)cc2o1 [Example 151]",
    "log10 IC50": 1.14
  },
  {
    "compound": "O=C(NS(=O)(=O)c1ccccc1-c1ccccc1)c1cc2ccc(N3CCC3)cc2o1 [Example 26]",
    "log10 IC50": 2.47
  },
  {
    "compound": "CC(C)c1ccc(OCc2ccccc2)c(S(=O)(=O)NC(=O)c2cc3c(F)cc(N4CCC4)cc3o2)c1 [Example 213]",
    "log10 IC50": 1.17
  },
  {
    "compound": "Cc1ccc2cccc(S(=O)(=O)NC(=O)c3cc4c(F)cc(N5CC(F)C5)cc4o3)c2n1 [Example 152]",
    "log10 IC50": 1.31
  },
  {
    "compound": "CC(C)Oc1ccc(C(C)(C)C)cc1S(=O)(=O)NC(=O)c1cc2c(F)cc(N3CCC3)cc2o1 [Example 229]",
    "log10 IC50": 1.44
  },
  {
    "compound": "CCOc1cccc(OC)c1S(=O)(=O)NC(=O)c1cc2c(F)cc(N3CCC3)cc2o1 [Example 1]",
    "log10 IC50": 1.32
  }
]

---

system_name: Recombinant human His-tagged Kat6a protein (amino acids 194-810) (Homo sapiens, UniProt Q92794)
Construct: Kat6a protein (amino acids 194-810); His
Sequence (Q92794 194-810): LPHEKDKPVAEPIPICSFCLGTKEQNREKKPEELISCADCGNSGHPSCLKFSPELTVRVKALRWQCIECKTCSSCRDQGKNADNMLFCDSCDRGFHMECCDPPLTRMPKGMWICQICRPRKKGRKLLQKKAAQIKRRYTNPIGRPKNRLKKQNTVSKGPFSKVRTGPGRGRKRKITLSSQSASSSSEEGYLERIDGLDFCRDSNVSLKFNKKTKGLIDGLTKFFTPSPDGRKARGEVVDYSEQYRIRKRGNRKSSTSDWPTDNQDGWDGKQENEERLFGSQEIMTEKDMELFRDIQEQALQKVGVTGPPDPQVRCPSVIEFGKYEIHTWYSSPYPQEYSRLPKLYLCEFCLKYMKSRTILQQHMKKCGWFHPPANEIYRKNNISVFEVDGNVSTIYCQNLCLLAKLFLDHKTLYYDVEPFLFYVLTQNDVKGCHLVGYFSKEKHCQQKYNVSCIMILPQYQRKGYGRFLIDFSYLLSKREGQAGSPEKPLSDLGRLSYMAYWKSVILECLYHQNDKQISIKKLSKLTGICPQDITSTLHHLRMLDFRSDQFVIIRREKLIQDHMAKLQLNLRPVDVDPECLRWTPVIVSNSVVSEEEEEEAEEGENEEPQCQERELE
experiment_notes: Kat6a activity assay (TR-FRET, acetylation of Histone-H4-derived peptide)
condition_label: 60 mins at 22° C., 220 nM H4 peptide, 600 nM Acetyl Coenzyme A, read-out: KAT6A - DPF/HAT domain IC50 [mol/l] (arithmetic mean)
Assign labels as follows, please: rule met for IC50 below 40 nM; rule not met for IC50 equal to or exceeding 40 nM.

[
  {
    "molecule": "O=C(NS(=O)(=O)c1cccc2c1NCCC2)c1cc2c(F)cc(N3CC(F)C3)cc2o1 [Example 110]",
    "class_assignment": "rule not met"
  },
  {
    "molecule": "COCCOc1ccc(Cl)c(S(=O)(=O)NC(=O)c2cc3c(F)cc(N4CCC4)cc3o2)c1 [Example 59]",
    "class_assignment": "rule not met"
  },
  {
    "molecule": "CCOc1cccc(S(=O)(=O)NC(=O)c2cc3c(F)cc(N4CCC4)cc3o2)c1 [Example 75]",
    "class_assignment": "rule not met"
  },
  {
    "molecule": "O=C(NS(=O)(=O)c1cnc2ccccn12)c1cc2c(F)cc(N3CCC3)cc2o1 [Example 186]",
    "class_assignment": "rule not met"
  },
  {
    "molecule": "Cc1ccnc2c1c(S(=O)(=O)NC(=O)c1cc3c(F)cc(N4CCC4)cc3o1)nn2C [Example 146]",
    "class_assignment": "rule not met"
  },
  {
    "molecule": "COc1cc(Br)ccc1S(=O)(=O)NC(=O)c1cc2c(F)cc(N3CCC3)cc2o1 [Example 174]",
    "class_assignment": "rule met"
  },
  {
    "molecule": "O=C(NS(=O)(=O)c1ccccc1-c1ccccc1)c1cc2c(F)cc(N3CCC3)cc2o1 [Example 19]",
    "class_assignment": "rule met"
  },
  {
    "molecule": "O=C(NS(=O)(=O)c1cc(Br)cc2c1OCC2)c1cc2c(F)cc(N3CCC3)cc2o1 [Example 177]",
    "class_assignment": "rule met"
  },
  {
    "molecule": "Cc1cccc(C2CCCC2)c1S(=O)(=O)NC(=O)c1cc2c(F)cc(N3CCC3)cc2o1 [Example 61]",
    "class_assignment": "rule not met"
  },
  {
    "molecule": "CCOc1ccc(OC(F)(F)F)cc1S(=O)(=O)NC(=O)c1cc2c(F)cc(N3CCC3)cc2o1 [Example 212]",
    "class_assignment": "rule met"
  },
  {
    "molecule": "Cn1ccc2cccc(S(=O)(=O)NC(=O)c3cc4c(F)cc(N5CCC5)cc4o3)c21 [Example 41]",
    "class_assignment": "rule not met"
  },
  {
    "molecule": "O=C(NS(=O)(=O)c1cccc2c(N3CCOCC3)cccc12)c1cc2c(F)cc(N3CCC3)cc2o1 [Example 188]",
    "class_assignment": "rule not met"
  },
  {
    "molecule": "CC1Cc2cccc(S(=O)(=O)NC(=O)c3cc4c(F)cc(N5CCC5)cc4o3)c2O1 (centres unmarked) [Example 18]",
    "class_assignment": "rule met"
  },
  {
    "molecule": "COc1cccnc1S(=O)(=O)NC(=O)c1cc2c(F)cc(N3CCC3)cc2o1 [Example 67]",
    "class_assignment": "rule not met"
  },
  {
    "molecule": "Cc1noc(-c2ccccc2S(=O)(=O)NC(=O)c2cc3c(F)cc(N4CCC4)cc3o2)n1 [Example 37]",
    "class_assignment": "rule not met"
  },
  {
    "molecule": "COc1ccc(N2CCCC2c2ccccc2)cc1S(=O)(=O)NC(=O)c1cc2c(F)cc(N3CCC3)cc2o1 (racemic) [Example 201]",
    "class_assignment": "rule met"
  },
  {
    "molecule": "O=C(NS(=O)(=O)c1ccccc1OC(F)(F)F)c1cc2c(F)cc(N3CCC3)cc2o1 [Example 138]",
    "class_assignment": "rule not met"
  },
  {
    "molecule": "CCc1cccc(OCc2ccccc2)c1S(=O)(=O)NC(=O)c1cc2c(F)cc(N3CCC3)cc2o1 [Example 85]",
    "class_assignment": "rule not met"
  },
  {
    "molecule": "CCn1nc(S(=O)(=O)NC(=O)c2cc3c(F)cc(N4CCC4)cc3o2)c2cccnc21 [Example 143]",
    "class_assignment": "rule not met"
  },
  {
    "molecule": "O=C(NS(=O)(=O)c1cccc2c1OC(F)(F)C(F)(F)O2)c1cc2c(F)cc(N3CC(F)C3)cc2o1 [Example 159]",
    "class_assignment": "rule met"
  }
]
